Organism: Rattus norvegicus
assayDetails: In vitro competitive antagonist effect of OT contractile action in the rat uterus determined by the rat oxytocic assay in presence of Mg2+
Format: functional
particulars: read-out: pA2 (converted)
endpointLabel: Kb (µM)
Numbers only, in µM.

Examples with their reported Kb follow.
chemicalStructure	Kb (µM)
CC[C@H](C)[C@@H]1NC(=O)[C@@H](Cc2c[nH]c3ccccc23)NC(=O)CC2(CCCCC2)SSC[C@@H](C(=O)N2CCC[C@H]2C(=O)N[C@@H](CCCN=C(N)N)C(=O)NCC(N)=O)NC(=O)[C@H](CC(N)=O)NC(=O)[C@@H](CCCNC(N)=O)NC1=O	3.09
CC[C@H](C)[C@@H]1NC(=O)[C@@H](Cc2c[nH]c3ccccc23)NC(=O)CC2(CCCCC2)SSC[C@@H](C(=O)N2CCC[C@H]2C(=O)N[C@@H](CCCN=C(N)N)C(=O)NCC(N)=O)NC(=O)[C@H](CC(N)=O)NC(=O)[C@@H](CC(N)=O)NC1=O	3.89
CC[C@@H](C)[C@H]1NC(=O)[C@@H](Cc2c[nH]c3ccccc23)NC(=O)CC2(CCCCC2)SSC[C@@H](C(=O)N2CCC[C@H]2C(=O)N[C@@H](CCCN=C(N)N)C(=O)NCC(N)=O)NC(=O)[C@H](CC(N)=O)NC(=O)[C@H](CCC(N)=O)NC1=O	5.89
CC[C@H](C)[C@@H]1NC(=O)[C@@H](Cc2c[nH]c3ccccc23)NC(=O)CC2(CCCCC2)SSC[C@@H](C(=O)N2CCC[C@H]2C(=O)N[C@H](CCCN=C(N)N)C(=O)NCC(N)=O)NC(=O)[C@H](CC(N)=O)NC(=O)[C@H](CCC(N)=O)NC1=O	0.0123
CC[C@H](C)[C@H]1NC(=O)[C@@H](Cc2c[nH]c3ccccc23)NC(=O)CC2(CCCCC2)SSC[C@@H](C(=O)N2CCC[C@H]2C(=O)N[C@@H](CCCN=C(N)N)C(=O)NCC(N)=O)NC(=O)[C@H](CC(N)=O)NC(=O)[C@H](CCC(N)=O)NC1=O	7.76
CC[C@H](C)[C@@H]1NC(=O)[C@@H](Cc2c[nH]c3ccccc23)NC(=O)CC2(CCCCC2)SSC[C@@H](C(=O)N2CCC[C@@H]2C(=O)N[C@@H](CCCN=C(N)N)C(=O)NCC(N)=O)NC(=O)[C@H](CC(N)=O)NC(=O)[C@H](CCC(N)=O)NC1=O	0.0141

List Kb for every entry below, keeping the order given.
1. CC[C@H](C)[C@@H]1NC(=O)[C@@H](Cc2c[nH]c3ccccc23)NC(=O)CC2(CCCCC2)SSC(C)(C)[C@H](C(=O)N2CCC[C@H]2C(=O)N[C@@H](CCCNC(=N)N)C(=O)NCC(N)=O)NC(=O)[C@H](CC(N)=O)NC(=O)[C@H](CCC(N)=O)NC1=O
2. CC[C@H](C)[C@@H]1NC(=O)[C@@H](Cc2c[nH]c3ccccc23)NC(=O)CC2(CCCCC2)SSC[C@@H](C(=O)N2CCC[C@H]2C(=O)N[C@@H](CCCNC(=N)N)C(=O)NCC(N)=O)NC(=O)[C@H](CC(N)=O)NC(=O)[C@@H]([C@H](C)O)NC1=O
3. CC[C@H](C)[C@@H]1NC(=O)[C@@H](Cc2c[nH]c3ccccc23)NC(=O)CC2(CCCCC2)SSC[C@H](C(=O)N2CCC[C@H]2C(=O)N[C@@H](CCCN=C(N)N)C(=O)NCC(N)=O)NC(=O)[C@H](CC(N)=O)NC(=O)[C@H](CCC(N)=O)NC1=O

Result block:
1: 0.0105; 2: 11.2; 3: 0.00513
